Origin of the recorded values: patent US9115134B2

assaySystem: MET (Homo sapiens, UniProt P08581)
protocolNotes: Test B: Inhibition of the autophosphorylation of MET; ELISA technique (pppY1230,1234,1235) in MKN45 cells
Assay type: cell-based
Design: Seed MKN45 cells into 96-well plates (Cell coat BD polylysine) at 20 000 cells/well; endogenous in cells; host or cells: MKN45 cells
conditionContext: 1 h treatment, PhosphoMET ELISA
Sequence (P08581 25-1390): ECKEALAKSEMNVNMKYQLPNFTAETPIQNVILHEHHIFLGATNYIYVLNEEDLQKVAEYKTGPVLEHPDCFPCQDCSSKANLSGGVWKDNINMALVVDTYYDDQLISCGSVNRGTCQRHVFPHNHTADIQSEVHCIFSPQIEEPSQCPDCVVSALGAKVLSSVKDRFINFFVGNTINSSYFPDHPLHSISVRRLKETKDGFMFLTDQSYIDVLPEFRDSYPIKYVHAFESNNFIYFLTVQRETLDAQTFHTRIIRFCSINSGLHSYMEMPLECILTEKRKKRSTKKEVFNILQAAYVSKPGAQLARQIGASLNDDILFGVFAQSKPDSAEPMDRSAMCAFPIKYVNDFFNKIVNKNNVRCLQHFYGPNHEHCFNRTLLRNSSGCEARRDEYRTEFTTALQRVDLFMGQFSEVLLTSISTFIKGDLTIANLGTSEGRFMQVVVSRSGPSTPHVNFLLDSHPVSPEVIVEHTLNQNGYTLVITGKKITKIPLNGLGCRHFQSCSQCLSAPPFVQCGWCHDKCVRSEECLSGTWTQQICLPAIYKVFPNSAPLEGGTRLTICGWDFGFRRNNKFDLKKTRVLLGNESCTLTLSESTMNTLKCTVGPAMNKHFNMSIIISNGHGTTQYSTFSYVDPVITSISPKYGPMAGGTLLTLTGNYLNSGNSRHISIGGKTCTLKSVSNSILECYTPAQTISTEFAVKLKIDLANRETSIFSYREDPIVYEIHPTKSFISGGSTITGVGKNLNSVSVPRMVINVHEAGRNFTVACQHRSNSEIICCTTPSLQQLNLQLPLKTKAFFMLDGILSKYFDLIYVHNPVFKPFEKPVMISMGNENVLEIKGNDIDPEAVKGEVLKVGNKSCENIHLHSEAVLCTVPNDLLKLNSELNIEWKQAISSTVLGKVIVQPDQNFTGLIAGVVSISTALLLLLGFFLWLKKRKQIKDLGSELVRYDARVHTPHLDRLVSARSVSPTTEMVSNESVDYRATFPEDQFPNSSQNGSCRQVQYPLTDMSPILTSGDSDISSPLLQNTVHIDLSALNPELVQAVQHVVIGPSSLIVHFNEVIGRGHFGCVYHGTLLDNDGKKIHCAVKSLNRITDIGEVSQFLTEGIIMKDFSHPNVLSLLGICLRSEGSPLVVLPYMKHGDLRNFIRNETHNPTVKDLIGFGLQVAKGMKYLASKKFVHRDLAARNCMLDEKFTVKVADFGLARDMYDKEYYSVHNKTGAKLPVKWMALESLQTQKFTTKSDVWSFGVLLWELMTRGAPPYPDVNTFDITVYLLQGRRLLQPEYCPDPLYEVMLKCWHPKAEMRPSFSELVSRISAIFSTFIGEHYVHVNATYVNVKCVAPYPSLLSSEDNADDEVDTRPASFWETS
measurementName: IC50

Previously resolved entries follow.
inputsmiles=O=C(Nc1nc2ccc(Sc3nnc4n3N=C(c3ccc(F)cc3)CC4)cc2s1)C1CC1 measurementname=IC50 reported="< 100 nM"
inputsmiles=CCOc1ccc2nnc(Sc3ccc4nc(N)sc4c3)n2n1 measurementname=IC50 reported="100 to 500 nM"
inputsmiles=Nc1nc2ccc(Sc3nnc4ccc(OC5CCCCC5)nn34)cc2s1 measurementname=IC50 reported="100 to 500 nM"

So what does the record say about IC50 for COCCCOC(=O)Nc1nc2ccc(Sc3nnc4ccc(NCCOC)nn34)cc2s1 ?
100 to 500 nM

So what does the record say about IC50 for O=C(CCCN1CCOCC1)Nc1nc2ccc(Sc3nnc4ccc(-c5ccc(F)cc5)nn34)cc2s1 ?
< 100 nM

* * *

assaySystem: MET (Homo sapiens)
protocolNotes: Test B: Inhibition of the autophosphorylation of MET; ELISA technique (pppY1230,1234,1235) in MKN45 cells
Format: cell-based
Set-up: Seed MKN45 cells into 96-well plates (Cell coat BD polylysine) at 20 000 cells/well; endogenous in cells; host or cells: MKN45 cells
conditionContext: 1 h treatment, PhosphoMET ELISA
pIC50: −log10 of the molar value.
measurementName: pIC50

Previously resolved entries follow.
molecule="CC(=O)Nc1nc2ccc(Sc3nnc4ccc(N5CCN(C)CC5)nn34)cc2s1 [Example 25]" reported="6.30 to 7.00"
molecule="O=C(NCCN1CCOCC1)Nc1nc2ccc(Sc3nnc4cccnn34)cc2s1 [Example 10]" reported="> 7.00"
molecule="O=C(Nc1nc2ccc(Sc3nnc4ccc(-c5ccc(F)cc5)nn34)cc2s1)Oc1ccccc1 [Example 33]" reported="> 7.00"
molecule="COC(=O)Nc1nc2ccc(Sc3nnc4ccc(-c5ccc(F)cc5)nn34)cc2[nH]1 [Example 4]" reported="> 7.00"
molecule="O=C(Nc1nc2ccc(Sc3nnc4ccc(-c5cccc(F)c5)nn34)cc2s1)C1CC1 [Example 67]" reported="> 7.00"
molecule="O=C(NCC[N+]1([O-])CCOCC1)Nc1nc2ccc(Sc3nnc4ccc(-c5ccc(F)cc5)nn34)cc2s1 [Example 42]" reported="> 7.00"
molecule="C[C@@H]1CN(CCNC(=O)Nc2nc3ccc(Sc4nnc5ccc(-c6ccc(F)cc6)nn45)cc3s2)C[C@H](C)O1 [Example 11]" reported="> 7.00"
molecule="Cn1cc(-c2ccc3nnc(Sc4ccc5nc(N)sc5c4)n3n2)cn1 [Example 43]" reported="> 7.00"
molecule="CCOc1ccc2nnc(Sc3ccc4nc(NC(=O)NC5CC5)sc4c3)n2n1 [Example 59]" reported="> 7.00"
molecule="O=C(NCCN1CCOCC1)Nc1nc2ccc(Sc3nnc4ccc(OCC5CCO5)nn34)cc2s1 (centres unmarked) [Example 34]" reported="> 7.00"

So what does the record say about pIC50 for CC(C)(C)OC(=O)Nc1nc2ccc(Sc3nnc4ccc(OCC(O)CCCl)nn34)cc2s1 (centres unmarked) [Example 51] ?
> 7.00

So what does the record say about pIC50 for O=C(Nc1nc2ccc(Sc3nnc4ccc(-c5ccc(F)cc5)nn34)cc2s1)OCC1CCO1 (centres unmarked) [Example 35] ?
> 7.00

So what does the record say about pIC50 for CC(C)(C)OC(=O)Nc1nc2ccc(Sc3nnc4ccc(-n5ccnc5)nn34)cc2s1 [Example 22] ?
6.30 to 7.00

So what does the record say about pIC50 for O=C(Nc1nc2ccc(Sc3nnc4ccc(-c5ccc(F)cc5)nn34)cc2s1)N1CCOCC1 [Example 55] ?
6.30 to 7.00

So what does the record say about pIC50 for COc1ccc2nnc(Sc3ccc4nc(NC(=O)OC(C)(C)C)sc4c3)n2n1 [Example 21] ?
6.30 to 7.00

So what does the record say about pIC50 for Fc1ccc(-c2ccc3nnc(Sc4ccc5nc(NCCN6CCOCC6)sc5c4)n3n2)cc1 [Example 30] ?
> 7.00

So what does the record say about pIC50 for Nc1nc2ccc(Sc3nnc4ccc(-c5ccc(F)cc5)nn34)cc2[nH]1 [Example 7] ?
6.30 to 7.00

* * *

Documented IC50 across a set of compounds
assaySystem: MET (Homo sapiens)
protocolNotes: Test A: HTRF MET assay in 96-well format
Type: biochemical
Set-up: The His-Tev-MET (956-1390) recombinant DNA in pFastBac (Invitrogen) is transfected into insect cells; His tag (N, cleaved yes); TEV cleavage site (N); made in house; host or cells: SF21 insect cells (baculovirus, pFastBac)
conditionContext: MET 5 nM, 10 μM ATP
Sequence (P08581 956-1390): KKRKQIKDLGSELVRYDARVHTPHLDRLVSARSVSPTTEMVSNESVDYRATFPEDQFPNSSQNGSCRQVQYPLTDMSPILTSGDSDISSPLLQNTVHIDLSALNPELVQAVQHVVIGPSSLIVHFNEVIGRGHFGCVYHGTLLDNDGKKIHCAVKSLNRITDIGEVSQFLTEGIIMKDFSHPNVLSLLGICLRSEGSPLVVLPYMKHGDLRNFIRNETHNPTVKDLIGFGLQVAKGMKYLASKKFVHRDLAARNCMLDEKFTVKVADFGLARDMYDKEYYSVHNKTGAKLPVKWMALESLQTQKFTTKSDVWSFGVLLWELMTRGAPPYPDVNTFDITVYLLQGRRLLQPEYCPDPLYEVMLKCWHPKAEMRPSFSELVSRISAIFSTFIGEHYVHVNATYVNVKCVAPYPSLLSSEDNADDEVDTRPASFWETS

compound=O=C(Nc1nc2ccc(Sc3nnc4ccc(-c5ccc(F)cc5)nn34)cc2s1)C1CC1 reported="< 100 nM"

So what does the record say about IC50 for Nc1nc2ccc(Sc3nnc4ccc(NC5CCCCC5)nn34)cc2s1 ?
< 100 nM

So what does the record say about IC50 for O=C(Nc1nc2ccc(Sc3nnc4ccc(-c5ccc(F)cc5)nn34)cc2s1)OCC1CCO1 (stereo not shown) ?
< 100 nM

So what does the record say about IC50 for COC(=O)Nc1nc2ccc(Sc3nnc4n3N=C(c3ccc(F)cc3)CC4)cc2[nH]1 ?
< 100 nM

* * *

assaySystem: MET (Homo sapiens)
protocolNotes: Test A: HTRF MET assay in 96-well format
Type: biochemical
Set-up: The His-Tev-MET (956-1390) recombinant DNA in pFastBac (Invitrogen) is transfected into insect cells; His tag (N, cleaved yes); TEV cleavage site (N); made in house; host or cells: SF21 insect cells (baculovirus, pFastBac)
conditionContext: MET 5 nM, 10 μM ATP
measurementName: IC50

So what does the record say about IC50 for O=C(NCCN1CCOCC1)Nc1nc2ccc(Sc3nnc4ccc(-n5ccnc5)nn34)cc2s1 ?
< 100 nM

So what does the record say about IC50 for O=C(Nc1nc2ccc(Sc3nnc4ccc(-c5ccc(F)cc5)nn34)cc2s1)N1CCOCC1 ?
< 100 nM

So what does the record say about IC50 for CCOc1ccc2nnc(Sc3ccc4nc(NC(=O)CCOC)sc4c3)n2n1 ?
< 100 nM

So what does the record say about IC50 for CN1CCN(CCNC(=O)Nc2nc3ccc(Sc4nnc5ccc(-c6ccc(F)cc6)nn45)cc3s2)CC1 ?
< 100 nM

So what does the record say about IC50 for CCOC1=Nn2c(nnc2Sc2ccc3nc(NC(=O)NCCN4CCOCC4)sc3c2)CC1 ?
< 100 nM

So what does the record say about IC50 for Cn1cc(-c2ccc3nnc(Sc4ccc5nc(N)sc5c4)n3n2)cn1 ?
< 100 nM

So what does the record say about IC50 for O=C(NCC[N+]1([O-])CCOCC1)Nc1nc2ccc(Sc3nnc4ccc(-c5ccc(F)cc5)nn34)cc2s1 ?
< 100 nM

So what does the record say about IC50 for O=C(NCCN1CCOCC1)Nc1nc2ccc(Sc3nnc4ccc(-c5ccc(F)cc5)nn34)cc2[nH]1 ?
< 100 nM

* * *

assaySystem: UniProt:P08581
protocolNotes: Test B: Inhibition of the autophosphorylation of MET; ELISA technique (pppY1230,1234,1235) in MKN45 cells
Assay type: cell-based
Set-up: Seed MKN45 cells into 96-well plates (Cell coat BD polylysine) at 20 000 cells/well; endogenous in cells; host or cells: MKN45 cells
conditionContext: 1 h treatment, PhosphoMET ELISA
pIC50: −log10 of the molar value.
Documented pIC50 across a set of compounds

Entry COC(=O)Nc1nc2ccc(Sc3nnc4ccc(-c5ccc(F)cc5)nn34)cc2s1 , system UniProt:P08581: what pIC50 was measured?
> 7.00

Entry Nc1ccc2nnc(Sc3ccc4nc(NC(=O)NCCN5CCOCC5)sc4c3)n2n1 , system UniProt:P08581: what pIC50 was measured?
6.30 to 7.00

Entry CCN(CC)CCNC(=O)Nc1nc2ccc(Sc3nnc4ccc(-c5ccc(F)cc5)nn34)cc2s1 , system UniProt:P08581: what pIC50 was measured?
> 7.00

Entry COC(=O)Nc1nc2ccc(Sc3nnc4n3N=C(c3ccc(F)cc3)CC4)cc2[nH]1 , system UniProt:P08581: what pIC50 was measured?
6.30 to 7.00

Entry Nc1nc2ccc(Sc3nnc4n3N=C(c3cccc(F)c3)CC4)cc2s1 , system UniProt:P08581: what pIC50 was measured?
6.30 to 7.00

Entry CCOc1ccc2nnc(Sc3ccc4nc(NC(=O)CCOC)sc4c3)n2n1 , system UniProt:P08581: what pIC50 was measured?
> 7.00

Entry CC(C)C(=O)Nc1nc2ccc(Sc3nnc4ccc(-c5ccc(F)cc5)nn34)cc2s1 , system UniProt:P08581: what pIC50 was measured?
6.30 to 7.00

Entry CC(=O)Nc1nc2ccc(Sc3nnc4ccc(N5CCOCC5)nn34)cc2s1 , system UniProt:P08581: what pIC50 was measured?
6.30 to 7.00

Entry COc1ccc2nnc(Sc3ccc4nc(NC(=O)NCCN5CCOCC5)sc4c3)n2n1 , system UniProt:P08581: what pIC50 was measured?
> 7.00

Entry Nc1nc2ccc(Sc3ccc(C4=Nn5c(nnc5Sc5ccc6nc(N)sc6c5)CC4)cc3)cc2s1 , system UniProt:P08581: what pIC50 was measured?
< 6.30

Entry O=C(NCCN1CCOCC1)Nc1nc2ccc(Sc3nnc4ccc(-c5ccc(F)cc5)nn34)cc2s1 , system UniProt:P08581: what pIC50 was measured?
> 7.00

Entry COCCCOC(=O)Nc1nc2ccc(Sc3nnc4ccc(OC)nn34)cc2s1 , system UniProt:P08581: what pIC50 was measured?
6.30 to 7.00

Entry Nc1nc2ccc(Sc3nnc4ccc(-c5ccc(F)cc5)nn34)cc2s1 , system UniProt:P08581: what pIC50 was measured?
> 7.00
